Consider the following molecules and their measured inhibition readings.
measured.on: Human immunodeficiency virus type 1 integrase (Human immunodeficiency virus 1)
Sequence (Q7ZJM1 whole entry): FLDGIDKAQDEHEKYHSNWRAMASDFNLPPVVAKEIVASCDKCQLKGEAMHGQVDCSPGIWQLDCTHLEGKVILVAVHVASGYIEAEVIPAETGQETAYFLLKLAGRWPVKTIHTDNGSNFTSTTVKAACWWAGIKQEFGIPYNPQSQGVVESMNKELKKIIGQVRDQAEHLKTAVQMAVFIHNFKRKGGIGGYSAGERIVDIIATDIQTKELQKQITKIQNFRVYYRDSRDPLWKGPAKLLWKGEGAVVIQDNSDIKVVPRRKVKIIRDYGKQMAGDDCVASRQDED
assay.name: Percentage inhibition was obtained by performing in vitro assay on purified recombinant integrase by 3''-processing method at 100 micro g/mL (experiment 1)
Give a bare numeral; the unit % is implied.

Example results:
{"given.smiles": "O=C(NCO)c1ccccc1O", "assay.metric": "inhibition", "reported.value": 25.8}
{"given.smiles": "CCCCCCCCCCCCCCCCCCCN1CN(CO)CN(CO)C1=O", "assay.metric": "inhibition", "reported.value": 20.8}

Request: Return inhibition measured with Human immunodeficiency virus type 1 integrase (Human immunodeficiency virus 1) given this molecule: O=C(NCCO)c1cc(Cl)ccc1O
Result: 0.4

----------
measured.on: Human immunodeficiency virus type 1 integrase (Human immunodeficiency virus 1)
assay.name: Inhibitory concentration against purified recombinant integrase by 3'-processing in vitro assay (experiment 2)
IC50 vs 200 µM: less than gives 1; not less than gives -1.

Worked examples, 6 compounds total:
{"compound": "CCC/C=C/C=C/[C@@H]1C[C@@H](O)[C@@H](O)C(=O)[C@H]1CO", "category.label": -1}
{"compound": "COc1cc(N)ccc1C(=O)NC(CCC(=O)O)C(=O)O (configuration not stated)", "category.label": -1}
{"compound": "O=C(NO)/C(CC(=O)c1ccc(O)cc1O)=N\\O", "category.label": 1}
{"compound": "COc1cc2oc(-c3ccc(O)cc3)cc(=O)c2c(O)c1C1OC(CO)C(O)C(O)C1O (configuration not stated)", "category.label": -1}
{"compound": "C[C@H]1C(=O)c2c(cc(O)c(C3OC(CO)C(O)C(O)C3O)c2O)OC1c1ccc(O)c(O)c1 (some centres not stated)", "category.label": 1}
{"compound": "O=C(CC(O)(c1ccccc1)c1ccc(Cl)cc1)NC(=O)c1ccccc1O (configuration not stated)", "category.label": -1}

Request: Below 200 µM on IC50? Entry O=C(CCCCC(=O)c1ccc(O)cc1O)OCCO
Result: -1

----------
measured.on: UniProt:Q7ZJM1
assay.name: Inhibitory concentration against purified recombinant integrase by strand transferrin vitro assay
assay.metric: pIC50
Friendly reminder that pIC50 comes from taking -log10 of the concentration in mol/L.

Request: Return pIC50 measured with UniProt:Q7ZJM1 given this compound: O=C(N/N=C/c1ccc(O)cc1O)N/N=C/c1ccc(O)cc1O
Result: 4.69

----------
measured.on: Human immunodeficiency virus type 1 integrase (Human immunodeficiency virus 1) (UniProt Q7ZJM1)
Sequence (Q7ZJM1 as listed by the source): as the sequence (Q7ZJM1 whole entry) above
assay.name: Percentage inhibition was obtained by performing in vitro assay on purified recombinant integrase by strand transfer method at 100 micro g/mL (experiment 2)
Consider the following compounds and their measured inhibition readings.
Give a bare numeral; the unit % is implied.

{"compound": "O=C(N/N=C/c1ccccc1O)C(O)c1ccccc1 (stereo not given)", "assay.metric": "inhibition", "reported.value": 70.2}
{"compound": "Cc1cc(CC(=O)NCCO)n(CCO)c(=O)c1", "assay.metric": "inhibition", "reported.value": 47.9}
{"compound": "O=C(O)CNC(=O)c1ccccc1O", "assay.metric": "inhibition", "reported.value": 33.3}
{"compound": "O=C(N/N=C/c1ccccc1O)C(O)(c1ccccc1)c1ccccc1", "assay.metric": "inhibition", "reported.value": 74.1}
{"compound": "CCN(CC)CCCC(C)Nc1cc(F)cc2cccnc12 (stereo not given)", "assay.metric": "inhibition", "reported.value": 48.9}

Request: Could you tell me which inhibition is on file for COc1cc2oc(-c3ccc(O)cc3)cc(=O)c2c(O)c1C1OC(CO)C(O)C(O)C1O (stereo not given) ?
Result: 66.8

Request: Could you tell me which inhibition is on file for O=c1ccc2cc(O[C@@H]3O[C@H](CO)[C@@H](O)[C@H](O)[C@H]3O)c(O)cc2o1 ?
Result: 34.2

Request: Could you tell me which inhibition is on file for O=C(OCCO)c1ccccc1O ?
Result: 18.9

Request: Could you tell me which inhibition is on file for CCCCCCCCCCCCCCCCCCCN1CN(CO)CN(CO)C1=O ?
Result: 69.7

Request: Could you tell me which inhibition is on file for O=C(CC(O)c1cccnc1)CC(O)c1cccnc1 (stereo not given) ?
Result: 43.2

Request: Could you tell me which inhibition is on file for O=C(NN(CCO)CCO)c1ccccc1 ?
Result: 69.9

Request: Could you tell me which inhibition is on file for O=C(CC(=O)Nc1ccccc1O)Nc1ccccc1O ?
Result: 37
